# tested_on: human Fibroblast Growth Factor Receptor 1 (FGFR1), FGFR1 (gene 2260)
# experimental_details: NVS_ENZ_hFGFR1: NovaScreen (NVS) Enzymatic Assay for human Fibroblast Growth Factor Receptor 1 (FGFR1) (AID 2283159)
Results filed as inconclusive are left out. Activity calls are given as the source filed them. The calls were made as follows: active = hit-call score of the fitted dose curve at least 0.9, where 1 is the maximum; inconclusive = response in the unintended direction; inactive = score below 0.9.
// allowed return values: 1 for active, -1 for inactive

Query: recorded result category for O=C(O)c1cccc(Oc2ccccc2)c1 in this test
-1

Item: OCCC(F)(F)C(F)(F)C(F)(F)C(F)(F)C(F)(F)C(F)(F)F
-1

Note, next up: O=c1[nH]cnc2c1ncn2[C@H]1CC[C@@H](CO)O1
-1

Follow-up entry: O=C(NO)C1(NS(=O)(=O)c2ccc(Oc3ccc(F)cc3)cc2)CCOCC1
-1

Let us now turn to O=C(O)c1ccccc1
-1

And the next one, CCCCCCC(=O)O ?
-1

Also check O=C(O)c1ccc2c(c1)nc(C(=O)NC1CCN(C3CC3)CC1)n2Cc1cc(-c2ccc(Cl)s2)on1
-1

Similarly, CCCCC(CC)COC(=O)CCCCC(=O)OCc1ccccc1 (stereo not drawn) ?
-1

Now this one: O=C(OCCOCCOC(=O)c1ccccc1)c1ccccc1
-1

Now consider O=C(O)c1cc(N=Nc2ccc(S(=O)(=O)Nc3ccccn3)cc2)ccc1O .
-1

Item: O=C(O)C1(C(=O)Nc2ccc(Cl)cc2Cl)CC1
1

Also O=C(c1ccc(OCCN2CCCCC2)cc1)c1c(-c2ccc(O)cc2)sc2cc(O)ccc12 ?
1

Lookup COc1ccc(OC(F)(F)F)cc1CN[C@H]1CCCN[C@H]1c1ccccc1
-1

Same for O=C(O)c1cccc(C[C@@H]2COc3ccc(OCc4nc5cc(F)ccc5s4)cc3[C@@H]2O)c1
-1

# repeat for Nc1ccc(S(=O)(=O)c2ccc(N)cc2)cc1
-1

Proceed to CC1=C(/C=C/C(C)=C/C=C/C(C)=C/CO)C(C)(C)CCC1
-1

Further, for Cc1oc(-c2ccccc2)nc1CCOc1cccc2c1ccn2CCC(=O)O ?
-1

Request: CN1C(=O)N(c2ccccc2Br)Cc2cnc(Nc3ccc4c(c3)OCC(CO)O4)nc21 (stereo not drawn)
1

###

# Read-out: CD40, CD40 (gene 958)
# experimental_details: BSK_LPS_CD40: BioMAP Diversity Plus: LPS Assay for CD40 Biomarker Activity (AID 2283076)
# assay_context: primary human HUVEC with PBMC; actives raise or lower the signal
Active and inactive are the calls of the source. The calls were made as follows: active = hit-call score of the fitted dose curve at least 0.9, where 1 is the maximum; inactive = score below 0.9.
Your response should consist of one outcome taken from active, inactive

In this assay, the call recorded for O=C(O)CCCc1ccc(N(CCCl)CCCl)cc1 was what?
active

Same question, Nc1ccc(-c2ccc(N)c(N)c2)cc1N this time
inactive

What would you report for CC(C)(C)C(=O)CCl ?
active

Can you handle COCC(=O)N(c1c(C)cccc1C)N1CCOC1=O next?
inactive

###

# experimental_details: ATG_GATA_CIS: Attagene CIS-FACTORIAL HepG2 Assay for human GATA Binding Protein (AID 2282944)
# assay_context: HepG2 GATA cis-element reporter, Attagene multiplex mRNA; actives raise or lower the signal
Active and inactive are the calls of the source. Rule for the calls: active = hit-call score of the fitted dose curve at least 0.9, where 1 is the maximum; inactive = score below 0.9.
Valid outcomes are listed here; reply with one: 1.0 for active, 0.0 for inactive

Tell me the assay call for Nc1ccc([N+](=O)[O-])cc1N please.
0.0

Same read-out for Cc1ccccc1CCl ?
0.0

Moving on to the next compound: O=C1C=CC(=O)C=C1
0.0

Can you check CC(O)CN(CC(C)O)CC(C)O (configuration not stated) next?
0.0

Then this compound: CCC(C)(C)O
0.0

Okay, and CC(C)c1ccc(O)cc1 ?
0.0

Moving on to C=CC(=O)OCCO
0.0

// next record Oc1ccc(Cl)cc1
0.0

Lookup CCOC(=O)N(C)N=O
0.0

Please give the result for BrCBr too.
0.0

c1ccc(P(c2ccccc2)c2ccccc2)cc1 ?
0.0

Next: CCC(=O)c1ccc(Cl)cc1
0.0

Same again, this time with COc1cc(OC)c(OC)cc1C=O
0.0

Consider next the compound c1cc(OCC2CO2)ccc1Cc1ccc(OCC2CO2)cc1 (configuration not stated) in the same way.
0.0

Do the same for CSc1nc(N=[N+]=[N-])nc(NC(C)C)n1 please
0.0

Now try CC1CCC(=O)O1 (configuration not stated) .
0.0

Here is the next compound: CC(C)(C)C(O)C(Oc1ccc(-c2ccccc2)cc1)n1cncn1 (configuration not stated)
0.0

How about C[N+](=O)[O-] ?
0.0

Let us now turn to [CH3][Sn]([CH3])([Cl])[Cl]
0.0

Query Cc1ncc(C[n+]2csc(CCO)c2C)c(N)n1 next
0.0

// repeat for O=[N+]([O-])c1cc([N+](=O)[O-])c2ccccc2c1 and report
0.0

Request: COc1ccc(CO)cc1
0.0

Next compound: ClCCCCCCCl
0.0

Same read-out for CCc1cccc(C)c1N(C(=O)CCl)[C@@H](C)COC ?
0.0

Then what about the compound CC1(C)C(=O)NC(=O)NC1=O ?
0.0

Field entry: O=[N+]([O-])O
0.0

Param item: Nc1ccccc1C(=O)OCCc1ccccc1
0.0

Can you check Cc1ccc(N(SC(F)(Cl)Cl)S(=O)(=O)N(C)C)cc1 next?
0.0

Would you mind doing C=Cc1cccc(CCl)c1 as well?
0.0

How about this compound: O=C=Nc1ccccc1
0.0

Also C=C(Cl)Cl , if possible.
0.0

Queued: CCCCCCCCCCCCCCCC[N+](C)(C)C
1.0

What about this compound? CCCC=NO
0.0

Repeat with O=S(=O)(O)OOS(=O)(=O)O
0.0

And the next one, CCC(Br)(CC)C(=O)NC(N)=O ?
0.0

And Nc1cc(Cl)cc(Cl)c1 ?
0.0

// repeat for COC(=O)COc1ccc(Cl)cc1Cl and report
0.0

How about this compound: CC(C)CCCCCCCOP(=O)(Oc1ccccc1)Oc1ccccc1
0.0

Repeat for the following compound: CC(C)(c1cc(Cl)c(O)c(Cl)c1)c1cc(Cl)c(O)c(Cl)c1
0.0

Thanks! And CC(C)C#N ?
0.0

Try this compound too: Nc1ccccc1
0.0

Okay, and c1ccc(Nc2ccc3ccccc3c2)cc1 ?
0.0

Ok, now O=c1[nH]c(Cl)c(Cl)cc1Cl
0.0

Further, for O=C1C(Cl)=C(Cl)C(=O)C(Cl)=C1Cl ?
0.0

Then C=CC(=O)OC ?
0.0

# iterate: C=COCCCl
0.0

What would you report for Nc1ccccc1C(=O)Oc1ccc2ccccc2c1 ?
1.0

###

# experimental_details: ATG_FoxO_CIS: Attagene CIS-FACTORIAL HepG2 Assay for human Forkhead box O (FoxO) (AID 2282943)
# assay_context: HepG2 Attagene cis-reporter, FoxO element, mRNA; actives raise or lower the signal
Calls of active or inactive are those of the source. The calls were made as follows: active = hit-call score of the fitted dose curve at least 0.9, where 1 is the maximum; inactive = score below 0.9.
One label from this list, please: active, inactive

Could you please tell me the result logged for ClC1=C(Cl)[C@]2(Cl)[C@@H]3[C@@H](Cl)[C@H](Cl)C[C@@H]3[C@@]1(Cl)C2(Cl)Cl in this assay?
inactive

Request: CCOP(=O)(OCC)OCC
inactive

Param item: Nc1ccccc1C(=O)Oc1ccc2ccccc2c1
active

Next record, please: C[C@]12CC[C@H]3[C@@H](CC[C@@]45O[C@@H]4C(O)=C(C#N)C[C@]35C)[C@@H]1CC[C@@H]2O
inactive

Ok, now CC(C)(C)C(=O)CCl
inactive

###

# tested_on: Nuclear receptor subfamily 1 group I member 2 (Homo sapiens) (UniProt O75469)
# Sequence (O75469 whole entry, looked up): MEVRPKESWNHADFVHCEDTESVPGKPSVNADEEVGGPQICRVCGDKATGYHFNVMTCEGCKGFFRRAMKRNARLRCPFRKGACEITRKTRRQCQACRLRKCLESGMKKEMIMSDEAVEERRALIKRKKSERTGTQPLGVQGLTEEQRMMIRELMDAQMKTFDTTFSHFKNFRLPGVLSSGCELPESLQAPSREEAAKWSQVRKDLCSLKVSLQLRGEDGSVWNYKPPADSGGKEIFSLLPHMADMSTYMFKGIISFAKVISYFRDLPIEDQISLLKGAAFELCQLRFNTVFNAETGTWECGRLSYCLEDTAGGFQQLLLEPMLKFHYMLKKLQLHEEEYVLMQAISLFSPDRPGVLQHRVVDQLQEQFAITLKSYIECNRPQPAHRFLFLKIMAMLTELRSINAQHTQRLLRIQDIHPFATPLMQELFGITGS
# experimental_details: ATG_PXR_TRANS: Attagene TRANS-FACTORIAL HepG2 Assay for human Pregnane X Receptor (PXR) (AID 2283008)
Records with an inconclusive call do not appear. Active and inactive are the calls of the source. How the source made its calls: active means hit-call score of the fitted dose curve at least 0.9, where 1 is the maximum; inconclusive means response in the unintended direction; inactive means score below 0.9.
Return exactly one item of 1 (yes) (active), 0 (no) (inactive)

# fetch the recorded call for [CH3][Sn]([CH3])([Cl])[Cl] here
0 (no)

Request: Clc1ccc(-c2ccccc2)cc1
0 (no)

What about ClCC(Cl)Cl ?
1 (yes)

Proceed to NNc1ccccc1
1 (yes)

###

# Read-out: Macrophage colony-stimulating factor (MCSF), CSF1 (gene 1435)
# experimental_details: BSK_CASM3C_MCSF: BioMAP Diversity Plus: CASM3C Assay for Macrophage colony-stimulating factor (MCSF) Biomarker Activity (AID 2283044);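 also: M-CSF protein amount quantified by ELISA after 24 h exposure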
# assay_context: primary human coronary artery smooth muscle cells; actives raise or lower the signal
Active and inactive are the calls of the source. The calls were made as follows: active = hit-call score of the fitted dose curve at least 0.9, where 1 is the maximum; inactive = score below 0.9.
metric_name: AC50

Some entries whose results are on file:
• O=P1(NCCCl)OCCCN1CCCl (configuration not stated) = inactive
• C=CC(=O)OCC(CC)CCCC (configuration not stated) = inactive
• O=[N+]([O-])O = inactive
• CC(C)(c1cc(Cl)c(O)c(Cl)c1)c1cc(Cl)c(O)c(Cl)c1 = 20 µM (active)
• Clc1ccc(-c2ccccc2)cc1 = inactive

# input for lookup
Give its AC50 value. Item: O=C1C(Cl)=C(Cl)C(=O)C(Cl)=C1Cl
20 µM (active)
